Quick reference: EC50 of the listed items.
Target Under Test: sGC α1/β1 heterodimer stably expressed in CHO-K1 cell line (CHO-K1/sGC) (Homo sapiens, UniProt Q02108+Q02153)
Construct: expressed in transfected cells
Sequence (Q02108 1-690): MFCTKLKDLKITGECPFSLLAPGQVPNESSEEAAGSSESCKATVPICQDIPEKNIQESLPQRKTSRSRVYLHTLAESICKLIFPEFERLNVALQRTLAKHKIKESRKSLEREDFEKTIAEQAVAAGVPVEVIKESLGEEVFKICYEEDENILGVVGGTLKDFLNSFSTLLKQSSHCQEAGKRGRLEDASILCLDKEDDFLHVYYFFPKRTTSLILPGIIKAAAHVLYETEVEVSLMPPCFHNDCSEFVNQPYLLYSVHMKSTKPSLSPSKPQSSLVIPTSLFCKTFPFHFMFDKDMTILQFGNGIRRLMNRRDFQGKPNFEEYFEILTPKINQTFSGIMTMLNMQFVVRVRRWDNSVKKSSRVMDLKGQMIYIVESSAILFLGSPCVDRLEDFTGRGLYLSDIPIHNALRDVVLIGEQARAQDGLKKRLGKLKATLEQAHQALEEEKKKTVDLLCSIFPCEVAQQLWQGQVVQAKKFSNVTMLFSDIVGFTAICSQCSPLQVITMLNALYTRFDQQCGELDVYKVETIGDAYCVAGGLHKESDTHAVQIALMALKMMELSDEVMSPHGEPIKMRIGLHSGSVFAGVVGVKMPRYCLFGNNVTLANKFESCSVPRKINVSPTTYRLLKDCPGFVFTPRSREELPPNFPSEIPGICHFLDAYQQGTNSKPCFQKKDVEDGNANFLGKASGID
Sequence (Q02153 1-619): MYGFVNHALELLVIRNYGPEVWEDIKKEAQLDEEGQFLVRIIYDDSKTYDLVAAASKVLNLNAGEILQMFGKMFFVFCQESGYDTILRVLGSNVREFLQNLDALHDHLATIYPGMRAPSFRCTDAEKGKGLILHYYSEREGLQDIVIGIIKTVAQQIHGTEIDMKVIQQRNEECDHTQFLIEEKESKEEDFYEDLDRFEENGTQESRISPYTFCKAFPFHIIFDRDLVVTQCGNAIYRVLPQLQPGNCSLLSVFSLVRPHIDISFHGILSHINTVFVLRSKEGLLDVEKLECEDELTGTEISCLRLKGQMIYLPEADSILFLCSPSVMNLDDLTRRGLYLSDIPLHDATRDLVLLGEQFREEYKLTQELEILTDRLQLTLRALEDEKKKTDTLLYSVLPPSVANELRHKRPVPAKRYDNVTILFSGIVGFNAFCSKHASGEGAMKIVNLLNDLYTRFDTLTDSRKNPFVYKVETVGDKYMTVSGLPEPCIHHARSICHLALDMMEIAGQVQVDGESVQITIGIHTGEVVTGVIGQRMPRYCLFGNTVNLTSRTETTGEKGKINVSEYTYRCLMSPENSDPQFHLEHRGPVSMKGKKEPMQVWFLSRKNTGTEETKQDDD
Test Method Notes: Cell-based sGC Functional Assay (CASA Assay), cGMP generation
Test Conditions: CHO-K1/sGC cells, 1 hr at 37° C., cGMP by HTRF, 4P fit; presence or absence of 1 μM DETA-NO not given; read-out: IP (nM) (inflection point)
Experimental: sGC is a heme-containing enzyme that converts GTP to secondary messenger cGMP. Increases in cGMP levels affect several physiological processes including vasorelaxation through multiple downstream pathways. […] [drawing 300] […] The test compounds' activities were then expressed as a percentage of Compound A, the standard in every experiment. This percent activation was calculated either in the presence or absence of DETA-NO which was then plotted. […]
Give the value, in units of nM, as a plain number.

Example entries and their recorded answers appear below.
>>> df
                                   compound  quantity_measured  quantitative_result
0  C[C@@]1(c2ccc(F)cc2)C(=O)Nc2nc(-c3cn4ncnc4c(Cc4ccc(F)cc4)n3)nc(O)c21 [Example 162B]               EC50                 96.7
1  CC1(c2nnc(C3CC3)o2)C(=O)Nc2nc(-c3cn4ncnc4c(CCC(F)(F)C(F)(F)F)n3)nc(N)c21 (centres unmarked) [Example 98B]               EC50                 86.1
2  CC1(c2ccc(Cl)cc2)C(=O)Nc2nc(-c3cn4ncnc4c(CCCC(F)(F)F)n3)nc(O)c21 (centres unmarked) [Example 142A]               EC50                  207
3  CC1(c2ccccn2)C(=O)Nc2nc(-c3cn4ncnc4c(CCCC(F)(F)F)n3)nc(O)c21 (centres unmarked) [Example 145B]               EC50                 1220
4  COc1ccc(C2(C)C(=O)Nc3nc(-c4cn5ncnc5c(CCCC(F)(F)F)n4)nc(O)c32)nc1 (centres unmarked) [Example 148A]               EC50                 1090
5  CC1(c2nnc(C(F)F)o2)C(=O)Nc2nc(-c3cn4ncnc4c(CCCC(F)(F)F)n3)nc(N)c21 (centres unmarked) [Example 100A]               EC50                  127
6  C[C@@]1(c2ccc(F)cc2)C(=O)Nc2nc(-c3cn4ncnc4c(CCC(F)(F)C(F)(F)F)n3)nc(O)c21 [Example 119A]               EC50                  134
7  CC1(c2ccc(C(F)(F)F)cn2)C(=O)Nc2nc(-c3cn4ncnc4c(CCCC(F)(F)F)n3)nc(C(N)=O)c21 (centres unmarked) [Example 179B]               EC50                 90.2

Query string: So what's the measured EC50 for this one? CCCCc1nc(-c2nc(N)c3c(n2)NC(=O)C3(C)c2ccc(Cl)cc2)cn2ncnc12 (centres unmarked) [Example 63A]
Result string: 21.9

Query string: So what's the measured EC50 for this one? CC1(c2ccccc2)C(=O)Nc2nc(-c3cn4ncnc4c(CCCC(F)(F)F)n3)nc(N)c21 (centres unmarked) [Example 37B]
Result string: 11.5

Query string: So what's the measured EC50 for this one? CC1(c2ccccn2)C(=O)Nc2nc(-c3cn4ncnc4c(CCCC(F)(F)F)n3)nc(N)c21 (centres unmarked) [Example 36B]
Result string: 56.5

Query string: So what's the measured EC50 for this one? CC1(c2ccc(C(F)(F)F)cc2)C(=O)Nc2nc(-c3cn4ncnc4c(CCC(F)(F)F)n3)nc(N)c21 (centres unmarked) [Example 77B]
Result string: 333

Query string: So what's the measured EC50 for this one? CCCc1nc(-c2nc(O)c3c(n2)NC(=O)C3(C)c2ccc(Cl)c(F)c2)cn2ncnc12 (centres unmarked) [Example 166B]
Result string: 711

Query string: So what's the measured EC50 for this one? CCCc1nc(-c2nc(N)c3c(n2)NC(=O)C3(C)c2ccc(Cl)cc2)cn2nc(C)nc12 (centres unmarked) [Example 93A]
Result string: 439

Query string: So what's the measured EC50 for this one? CCCCc1nc(-c2nc(N)c3c(n2)NC(=O)C3(C)c2nnc(C(F)(F)F)o2)cn2ncnc12 (centres unmarked) [Example 102A]
Result string: 29.1

Query string: So what's the measured EC50 for this one? Cc1nc2c(CCC(F)(F)C(F)(F)F)nc(-c3nc(N)c4c(n3)NC(=O)[C@@]4(C)c3ccc(F)cc3)cn2n1 [Example 88B]
Result string: 65

Query string: So what's the measured EC50 for this one? Nc1nc(-c2cn3ncnc3c(CCCC(F)(F)F)n2)nc2c1C(c1ccc(F)cn1)(C1CC1)C(=O)N2 (centres unmarked) [Example 34A]
Result string: 428

Query string: So what's the measured EC50 for this one? CC1(c2nnc(C3(F)CC3)o2)C(=O)Nc2nc(-c3cn4ncnc4c(CCCC(F)(F)F)n3)nc(N)c21 (centres unmarked) [Example 109A]
Result string: 7.3

Query string: So what's the measured EC50 for this one? CCCc1nc(-c2nc(N)c3c(n2)NC(=O)C3(c2ccc(Cl)cn2)C2CC2)cn2ncnc12 (centres unmarked) [Example 57A]
Result string: 577

Query string: So what's the measured EC50 for this one? C[C@@]1(c2ccc(F)cc2)C(=O)Nc2nc(-c3cn4ncnc4c(CCCC(F)(F)F)n3)nc(O)c21 [Example 135A]
Result string: 183

Query string: So what's the measured EC50 for this one? Nc1nc(-c2cn3ncnc3c(CCC(F)(F)C(F)(F)F)n2)nc2c1C(c1ccc(C(F)(F)F)cn1)(C1CC1)C(=O)N2 (centres unmarked) [Example 15A]
Result string: 316

Query string: So what's the measured EC50 for this one? CCCCc1nc(-c2nc(N)c3c(n2)NC(=O)C3(C)c2ccc(Cl)cn2)cn2ncnc12 (centres unmarked) [Example 69A]
Result string: 13.7

Query string: So what's the measured EC50 for this one? Cc1nc(C2(C)C(=O)Nc3nc(-c4cn5ncnc5c(CCCC(F)(F)F)n4)nc(N)c32)ccc1C(F)(F)F (racemic) [Example 49B]
Result string: 595

Query string: So what's the measured EC50 for this one? CCCc1nc(-c2nc(N)c3c(n2)NC(=O)C3(c2ccc(C(F)(F)F)cn2)C2CC2)cn2ncnc12 (centres unmarked) [Example 56A]
Result string: 384

Query string: So what's the measured EC50 for this one? O=C1Nc2nc(-c3cn4ncnc4c(CCCC(F)(F)F)n3)nc(O)c2C1(c1ccc(F)cc1)C1CC1 (centres unmarked) [Example 139B]
Result string: 673

Query string: So what's the measured EC50 for this one? CCCc1nc(-c2nc(O)c3c(n2)NC(=O)C3(C)c2ccc(Cl)cc2)cn2nc(C)nc12 (centres unmarked) [Example 168A]
Result string: 1450

The origin of these recorded values is patent US9822130B2.
